- Protocol description: Permeability across basal to apical side in human Caco-2 cells
- Format: ADME, cell-based
- Protocol conditions: read-out: permeability
Measure name: Papp B→A (×10⁻⁶ cm/s)

1) CS(=O)(=O)Nc1ccccc1-c1ccc(N2CCC[C@@H](NC(=O)Nc3ccc(Cl)cc3)C2=O)cc1: 41.8
2) COc1cnc(NC(=O)N[C@@H]2CCCN(c3ccc(-c4ccccc4NS(C)(=O)=O)cc3)C2=O)c(F)c1: 44
3) CS(=O)(=O)Nc1ccccc1-c1ccc(N2CCC[C@@H](NC(=O)Nc3ccc(Cl)cc3F)C2=O)cc1: 29.1
4) CS(=O)(=O)Nc1ccccc1-c1ccc(N2CCC[C@@H](NC(=O)Nc3ccc(C(F)(F)F)cc3)C2=O)cc1: 32.5
